- target-under-test: Cannabinoid receptor 1 (Homo sapiens, UniProt P21554)
- Sequence (P21554 whole entry): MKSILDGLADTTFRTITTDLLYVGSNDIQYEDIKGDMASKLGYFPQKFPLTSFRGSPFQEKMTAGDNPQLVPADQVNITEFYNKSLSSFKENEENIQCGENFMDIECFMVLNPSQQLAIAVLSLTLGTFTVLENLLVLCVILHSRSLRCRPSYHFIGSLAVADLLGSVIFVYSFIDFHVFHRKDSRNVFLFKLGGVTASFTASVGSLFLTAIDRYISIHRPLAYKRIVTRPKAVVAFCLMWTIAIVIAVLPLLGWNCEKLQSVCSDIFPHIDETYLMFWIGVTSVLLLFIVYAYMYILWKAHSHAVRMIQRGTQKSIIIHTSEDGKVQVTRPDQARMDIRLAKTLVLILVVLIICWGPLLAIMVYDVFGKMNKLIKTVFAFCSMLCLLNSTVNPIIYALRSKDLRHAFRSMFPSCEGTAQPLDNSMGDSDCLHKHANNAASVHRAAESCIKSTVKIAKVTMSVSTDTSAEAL
- method-description: Agonist activity at human CB1 receptor transfected in human U2OS cells assessed as beta-arrestin2-GFP aggregation after 40 mins
Record form. Attribute: EC50. Fill in for each entry.
Please give a number only; it is taken to be in nM.

Lab note: need EC50 with Cannabinoid receptor 1 (Homo sapiens, UniProt P21554) for entry "CC1(C)Oc2cc(C34CC5CC(CC(C5)C3)C4)cc(O)c2[C@@H]2CC(CO)=CC[C@H]21" , please look it up.
230

Now give it for "CC1(C)Oc2cc(C34CC5CC(CC(C5)C3)C4)cc(O)c2-c2cc(CO)ccc21" too.
450

Now give it for "CC1(C)Oc2cc(C34CC5CC(CC(C5)C3)C4)cc(O)c2[C@@H]2C[C@H](CO)CC[C@H]21" too.
96

Now give it for "CC1=CC[C@@H]2[C@@H](C1)c1c(O)cc(C34CC5CC(CC(C5)C3)C4)cc1OC2(C)C" too.
1530
